# reported TGI; entries follow
test system: SK-MEL-5 melanoma; assay: NCI tumour cell line growth inhibition, 48 h
The reply should be a number in µM, with the unit left off.

Record excerpt, results attached:
>>> observed_value("CCCCCCCCCCCCCC[n+]1ccc2c(C)c3c(c(C)c2c1)c1cc(O)ccc1n3CC")
0.724
>>> observed_value("N#CSCC1CC(O)(c2ccccc2)CC(c2ccc(F)cc2)O1 (stereo not given)")
3.26
>>> observed_value("NC1CC2NC3CCCCC3NC2CC1N (stereo not given)")
67.3

Given COc1ccc(/C=c2\sc3n(c2=O)C(N)=C(C#N)C(c2ccc(OC)cc2)C=3c2nc3ccccc3[nH]2)cc1 (stereo not given) , respond with its TGI.
36.8
